- experimentSummary: NCI Yeast Anticancer Drug Screen. Data for the mlh1 rad18 strain (AID 175)
- conditionParameters: S. cerevisiae mlh1 rad18 strain growth inhibition; at 5.0 µM (retest, dose inferred, filed as 0.5); stronger effect = higher value
This is part of a sample that, as a whole, favours compounds with a hit. Of some 79,000 tested, about 15% had one in any assay.
Reported growth inhibition values follow for various compounds
quantityKind: growth inhibition (%)

CCOc1ccc(N=Nc2c(C)nn(C(=S)SC)c2OCC)cc1 : -24
CCS(=O)(=O)OC(C)CCl (stereo unspecified) : -2
COC1C(=[N+]=[N-])C(=O)NC(=O)N1C1OC(COC(c2ccccc2)(c2ccccc2)c2ccccc2)C(O)C1O (stereo unspecified) : 15
CC1=C(C(=O)OCCO[N+](=O)[O-])C(c2cccc([N+](=O)[O-])c2)C(C(=O)OC(C)C)=C(C)N1 (stereo unspecified) : 12
CC(C)COC(=O)c1ccc(NC(=O)CCl)cc1 : 3
C=C1CC(C)(C)C(c2ccccc2)OC1=O (stereo unspecified) : 13
CCN(CC)CCNc1ccc(C)c2sc3cccc(O)c3c(=O)c12 : 12
O=C(O)/C=C/C(=O)Nc1cccc2c1C(=O)c1ccccc1-2 : 34
S=C(NCc1ccccc1)[S][Sb]([S]C(=S)NCc1ccccc1)[c]1ccccc1 : 6
S=C1NCCNC(=S)SS1 : 14
CCOC(=O)C1c2[nH]c3ccccc3c2CCN1C(=O)c1ccc(OC)o1 (stereo unspecified) : -12

* * *

# growth inhibition per record follows
- experimentSummary: NCI Yeast Anticancer Drug Screen. Data for the sgs1 mgt1 strain (AID 161);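 further: 0% = growth of cultures given vehicle only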
- conditionParameters: S. cerevisiae sgs1 mgt1 strain, at 50.0 µM, stronger effect = higher value
This is part of a sample that, as a whole, favours compounds with a hit. Of some 79,000 tested, about 15% had one in any assay. Activity calls are given as the source filed them. Cut-off read from the data, not from the text of the source: active = growth inhibition above about 70%; inactive = the rest.
quantityKind: growth inhibition

Cc1c2ccccc2cc2c1ccc1cccc(F)c12 : 80.7% (active)
CC12CCC(C(Br)(Br)C1=O)C2(C)C (stereo unspecified) : 72.1% (active)
CCCCCCC[CH2][Sn]([CH2]CCCCCCC)([O]c1cccc2cccnc12)[O]c1cccc2cccnc12 : 89.7% (active)
Cc1cccnc1NC(=S)Nc1ccccc1Cl : 93.2% (active)
CCc1n[nH]c(CC)c1CCCCCCOc1ccc(OC)cc1Cl : 92.2% (active)
C=C1CC2(CCOc3ccccc32)OC1=O (stereo unspecified) : 95% (active)

* * *

- experimentSummary: NCI Yeast Anticancer Drug Screen. Data for the bub3 strain (AID 167)
- conditionParameters: S. cerevisiae bub3 mutant strain, at 50.0 µM
This is part of a sample that, as a whole, favours compounds with a hit. Of some 79,000 tested, about 15% had one in any assay. Calls of active or inactive are those of the source. Cut-off read from the data, not from the text of the source: active = growth inhibition above about 70%; inactive = the rest.
Possible outcomes: active, inactive

COC12CC(=O)C(C(C)=O)=C(O)C1(C)c1c(OC(C)=O)c(C)c(O)c(C(C)=O)c1O2 (stereo unspecified) : inactive
C=CC1(c2ccc(OC)cc2)OCCCO1 : active
O=C(NNc1ccccc1)c1cccc([N+](=O)[O-])c1 : active
O=C(Nc1ccccc1)OCCN=C1c2ccccc2CCc2ccccc21 : active
CC(C)OC(=O)Oc1c(Cl)c(Cl)c(Cl)c(Cl)c1Cl : active
C=CC(=O)N1C/C(=C\c2ccc(F)cc2)C(=O)/C(=C/c2ccc(F)cc2)C1 : active
CCSC1(SCC)C(=O)OC2=C(CCCC2)C1N1CCOCC1 (stereo unspecified) : inactive
O=[N+]([O-])c1cc(Br)cc(Br)c1O : active
COC(=O)Nc1nc2ccc(CCC(=O)c3c(C)oc(C)c3-c3ccc(NC(C)=O)cc3)cc2[nH]1 : inactive
ClCc1ccc(OCc2ccccc2)c(OCc2ccccc2)c1 : active
CCCC(=O)C1=C(O)C(Cc2c(O)c(C)c(O)c(C(=O)CCC)c2O)=C(O)C(C)(C)C1=O : active
